Kindly supply the reported % tumor free on day 12 values for the records listed here.
System: MSV-induced tumor cell formation
Assay Comment: Inhibitory activity against MSV-induced tumor cell formation in newborn NMRI mice
Assay type: in vivo
Condition Label: 20 mg/kg i.p. at days 1-5; virus i.m. at day 1
One number for each entry, in %.

INSERT INTO assay_data (molecule, endpoint_name, unit_annotation, reported) VALUES
  ('C[C@H](Cn1cnc2c(N)ncnc21)OCP(=O)(O)O [(R)-PMPA]', '% tumor free on day 12', '%', 100),
  ('Nc1ncnc2c1ncn2CCOCP(=O)(O)O', '% tumor free on day 12', '%', 100),
  ('Nc1nc(N)c(Cl)c(OCCOCP(=O)(O)O)n1', '% tumor free on day 12', '%', 10);

Let us move to another entry and its % tumor free on day 12.
Quick note, % tumor free on day 12 for Cc1c(N)nc(N)nc1OCCOCP(=O)(O)O landed at 100

====

Test system: MSV-induced tumor cell formation
Assay Comment: Inhibitory activity against MSV-induced tumor cell formation in newborn NMRI mice
Assay type: in vivo
Condition Label: 50 mg/kg i.p. at days 1-5; virus i.m. at day 1
Endpoint Name: Mean day of tumor initiation

Would you please look over these solved cases?
INSERT INTO measurements (compound, reported) VALUES
  ('Nc1ncnc2c1ncn2CCOCP(=O)(O)O [PMEA, 9-(2-phosphonylmethoxyethyl)adenine]', '> 12 days'),
  ('C[C@H](Cn1cnc2c(N)ncnc21)OCP(=O)(O)O [(R)-PMPA]', '> 12 days'),
  ('N#Cc1c(N)nc(N)nc1OCCOCP(=O)(O)O [Example 8]', '8.20 ± 1.62 days');

State recorded Mean day of tumor initiation for all listed compounds.
1. Cc1c(N)nc(N)nc1OCCOCP(=O)(O)O [Example 5]
2. Nc1nc(N)c(Cl)c(OCCOCP(=O)(O)O)n1 [Example 5-Cl]

["> 12 days", "8.76 ± 1.86 days"]
